test system: MCF-7 line; assay: SRB cytotoxicity test on human tumour line MCF-7; type: cell-based; conditions: MCF7, MCF-7 human tumour line
Reported Endpoint: pIC50
// pIC50 here means minus log10 of the molar concentration (mol/L)

Q. Data request, read-out pIC50, for CO[C@@H]1CC(=O)c2c(cc3cc(C)ncc3c2O)[C@@H]1O
A. 4.94
